Values compiled from patent US20230271969A1.

target: NK3 receptors (Homo sapiens, UniProt P29371); construct: expressed in transfected cells; assay: Antagonism of IP1 in HEK293 cells with stable expression of NK3; assay type: cell-based; conditions: agonist Senktide 3 nM, read-out: NK3R IC50 (nM) IP1
Sequence (P29371 whole entry): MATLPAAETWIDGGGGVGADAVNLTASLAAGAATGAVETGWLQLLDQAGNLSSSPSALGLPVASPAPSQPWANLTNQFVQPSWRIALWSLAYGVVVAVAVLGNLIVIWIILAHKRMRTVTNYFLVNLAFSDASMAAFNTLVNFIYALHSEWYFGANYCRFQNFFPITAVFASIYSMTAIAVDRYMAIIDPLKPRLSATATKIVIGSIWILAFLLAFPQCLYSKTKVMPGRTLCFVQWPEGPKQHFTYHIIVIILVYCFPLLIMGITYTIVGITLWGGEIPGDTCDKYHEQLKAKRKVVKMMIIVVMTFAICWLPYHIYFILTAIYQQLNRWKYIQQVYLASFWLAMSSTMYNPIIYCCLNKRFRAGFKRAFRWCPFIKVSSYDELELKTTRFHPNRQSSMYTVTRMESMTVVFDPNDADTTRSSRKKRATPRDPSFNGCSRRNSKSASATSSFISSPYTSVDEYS
Property: IC50 (nM)
Answer in nM, number only, no unit symbol.

The reported NK3 receptors (Homo sapiens, UniProt P29371) IC50 of COc1ccc2nc(-c3nnc4n3CCN(C(=O)c3ccc(Cl)c(Cl)c3)[C@@H]4C)sc2c1 is 43.2

The reported NK3 receptors (Homo sapiens, UniProt P29371) IC50 of [2H]c1cc(C(=O)N2CCn3c(-c4nc(Cl)cs4)nnc3[C@H]2C)ccc1F is 132

The reported NK3 receptors (Homo sapiens, UniProt P29371) IC50 of Cc1cccc2sc(-c3nnc4n3CCN(C(=O)c3ccc(Cl)cc3)[C@@H]4C)nc12 is 43.6

The reported NK3 receptors (Homo sapiens, UniProt P29371) IC50 of C[C@@H]1c2nnc(-c3nc4cc(F)ccc4s3)n2CCN1C(=O)c1ccc(Cl)cc1 is 172

The reported NK3 receptors (Homo sapiens, UniProt P29371) IC50 of [2H]c1cc(C(=O)N2CCn3c(-c4nc5ccc(Cl)cc5s4)nnc3[C@H]2C)ccc1Cl is 16.4

The reported NK3 receptors (Homo sapiens, UniProt P29371) IC50 of [2H]c1c([2H])c(C(=O)N2CCn3c(-c4nc(Cl)ns4)nnc3[C@H]2C)c([2H])c([2H])c1F is 88.3

The reported NK3 receptors (Homo sapiens, UniProt P29371) IC50 of [2H]c1cc(C(=O)N2CCn3c(-c4nc5ccc(F)cc5s4)nnc3[C@H]2C)ccc1F is 108

The reported NK3 receptors (Homo sapiens, UniProt P29371) IC50 of C[C@@H]1c2nnc(-c3nc(N(C)C)ns3)n2CCN1C(=O)c1ccc(F)cc1 is 190

The reported NK3 receptors (Homo sapiens, UniProt P29371) IC50 of C[C@@H]1c2nnc(-c3nc4ccccc4s3)n2CCN1C(=O)c1ccc(Cl)cc1 is 68.7

The reported NK3 receptors (Homo sapiens, UniProt P29371) IC50 of Cc1ccc2nc(-c3nnc4n3CCN(C(=O)c3ccc(Cl)cc3)[C@@H]4C)sc2c1 is 47.8

The reported NK3 receptors (Homo sapiens, UniProt P29371) IC50 of C[C@@H]1c2nnc(-c3nc(Br)ns3)n2CCN1C(=O)c1ccc(F)cc1 is 100
